- target-of-assay: Endothelin receptor type B (Sus scrofa, UniProt P35463)
- Sequence (P35463 whole entry): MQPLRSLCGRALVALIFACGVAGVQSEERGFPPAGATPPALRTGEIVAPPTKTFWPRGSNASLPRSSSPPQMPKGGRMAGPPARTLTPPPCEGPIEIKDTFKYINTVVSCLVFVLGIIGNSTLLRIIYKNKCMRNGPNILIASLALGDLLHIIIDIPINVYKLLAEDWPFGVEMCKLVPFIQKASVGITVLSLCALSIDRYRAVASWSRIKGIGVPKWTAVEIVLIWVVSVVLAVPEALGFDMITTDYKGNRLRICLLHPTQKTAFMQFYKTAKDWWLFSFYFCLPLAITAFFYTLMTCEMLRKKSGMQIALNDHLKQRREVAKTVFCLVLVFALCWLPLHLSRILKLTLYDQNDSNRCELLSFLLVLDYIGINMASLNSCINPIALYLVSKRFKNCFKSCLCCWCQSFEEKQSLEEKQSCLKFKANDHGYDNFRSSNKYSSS
# literature pull: Endothelin receptor type B (Sus scrofa, UniProt P35463) IC50

Cc1oc([C@@H](Cc2cn(C)c3ccccc23)NC(=O)[C@H](CC(C)C)NC(=O)N2CCOC23CCCCC3)nc1C(=O)O    35 µM
CCCCCCCS(=O)(=O)N(CCC)CCN1C[C@H](c2ccc3c(c2)OCO3)[C@@H](C(=O)O)[C@@H]1c1ccc(OC)cc1    0.057 µM
COc1ccccc1C(=O)/C(Cc1cc(OC)c(OC)c(OC)c1)=C(\C(=O)O)c1ccc2nsnc2c1    4.8 µM
CCOC(=O)c1nc([C@@H](Cc2c[nH]c3ccccc23)NC(=O)[C@H](CC(C)C)NC(=O)N2CCCCCC2)oc1C    43 µM

Next, consider the following compound.
INPUT: Given the entry `Cc1oc([C@@H](Cc2c[nH]c3ccccc23)NC(=O)[C@H](CC(C)C)NC(=O)NC2CCCCC2)nc1C(=O)O` , what IC50 was observed with Endothelin receptor type B (Sus scrofa, UniProt P35463)?
OUTPUT: > 100 µM
